biological target: LmNADK1 (NADK from Lysteria monocytogenes) (Listeria monocytogenes serovar 1/2a (strain ATCC BAA-679 / EGD-e)); experiment: NAD kinase activity assay (coupled Glucose-6-phosphate dehydrogenase, absorbance at 340 nm); details: Dixon plots; 4 mM ATP; NAD 0.2, 0.5 and 1 mM; read-out: Ki, NADK from Lm
Observation type: Ki (µM)
Just the number please, in µM, no unit attached.

Kindly note the recorded Ki for Nc1ncnc2c1ncn2[C@@H]1O[C@H](CNCC#Cc2nc3c(N)ncnc3n2[C@@H]2O[C@H](CO)[C@@H](O)[C@H]2O)[C@@H](O)[C@H]1O [Inhibitor 19] , which is 10
